assay: pKa determination, conventional UV spectrophotometer method; assay type: physicochemical; details: aqueous buffer, pH 8.34, target pH 8.4, actual pH 8.34; 20 µg/mL; 248 nm; read-out: pKa
measured.attribute: pKa

Q) What measured pKa goes with CC[C@@H]1CN2CCc3c([nH]c4cccc(OC)c34)[C@@H]2C[C@@H]1/C(=C\OC)C(=O)OC ?
A) 8.13

###

Assay: n-octanol/water partition coefficient (logP, logD)
Assay type: physicochemical
Details: n-octanol/buffer pH 4, pH 4; read-out: Calculated n-octanol/water partition coefficient (logD)
Protocol: The HPLC system consisted of a Jasco delivery pump (Tokyo, Japan) equipped with autosampler connected to a Waters 2487 detector (Milford, MA, USA) coupled to Jasco Chromnav software (Version 2.0, Tokyo, Japan). […] The method was employed to quantify mitragynine in partition coefficient, stability, dissolution and solubility studies. Lipophilicity of mitragynine was determined by n-octanol/water partition coefficient (P) using the method described by Low et al.. […]
measured.attribute: logD
Keep the answer to the number alone.

Q) What measured logD goes with CC[C@@H]1CN2CCc3c([nH]c4cccc(OC)c34)[C@@H]2C[C@@H]1/C(=C\OC)C(=O)OC [mitragynine] ?
A) 0.78

Data credit: paper PMC6272646
